Protocol: in vitro
Condition set: rat
pIC50: −log10 of the molar value. Structures can show the parent of a compound that is named as a salt.
molecules and their reported pIC50
Measured attribute: pIC50

molecule="CN1CCN(CCCN2c3ccccc3Sc3ccc(C(F)(F)F)cc32)CC1 [Trifluoperazine dihydrochloride, reference compound]" result=4.92
molecule="CC(=O)O[C@]1(C(C)=O)CC[C@H]2[C@@H]3C[C@H](C)C4=CC(=O)CC[C@]4(C)[C@H]3CC[C@@]21C [Medroxyprogesterone acetate, reference compound]" result="< 4.70"
molecule="CC(=O)O[C@@]12CO[C@@H]1C[C@H](O)[C@@]1(C)C(=O)[C@H](O)C3=C(C)[C@@H](OC(=O)[C@H](O)[C@@H](NC(=O)OC(C)(C)C)c4ccccc4)C[C@@](O)([C@@H](OC(=O)c4ccccc4)[C@H]21)C3(C)C [Docetaxel, reference compound]" result="< 4.70"
